All figures here come from paper PMC7996328.

Readings of Ki for the listed compounds
# Assay Target: 5-HT2A receptor (Rattus norvegicus, UniProt P14842)
# Construct: from tissue; host or cells: rat frontal cortex (male SD), membrane homogenate
# Sequence (P14842 whole entry): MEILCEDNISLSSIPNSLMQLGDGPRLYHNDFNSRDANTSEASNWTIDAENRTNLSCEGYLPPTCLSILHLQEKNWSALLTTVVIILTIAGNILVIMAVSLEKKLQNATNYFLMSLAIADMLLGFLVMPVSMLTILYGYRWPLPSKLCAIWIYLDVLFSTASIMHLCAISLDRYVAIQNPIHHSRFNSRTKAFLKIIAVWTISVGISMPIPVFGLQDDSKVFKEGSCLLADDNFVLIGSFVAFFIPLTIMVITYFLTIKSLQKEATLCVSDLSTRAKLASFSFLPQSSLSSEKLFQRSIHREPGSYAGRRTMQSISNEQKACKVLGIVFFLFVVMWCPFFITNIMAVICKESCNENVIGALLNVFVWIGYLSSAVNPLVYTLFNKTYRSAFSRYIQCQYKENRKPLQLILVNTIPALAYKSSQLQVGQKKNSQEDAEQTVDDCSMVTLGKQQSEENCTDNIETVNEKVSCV
# Assay Text: 5-HT2A competition binding assay, [3H]ketanserin, frontal cortex homogenates
# Measurement Setup: [3H]ketanserin 1 nM, read-out: Ki (nM ± SEM) (converted)
Parameter: Ki

| Chemical Smiles | Experimental Value |
| --- | --- |
| COc1cccc(N2CCN(CCCCCOc3ccc4c(C)cc(=O)oc4c3C(C)=O)CC2)c1 | 144 nM |
| CC(=O)c1c(OCCCCCN2CCN(c3ccccc3F)CC2)ccc2c(C)cc(=O)oc12 | 122 nM |
| CC(=O)c1c(OCCN2CCN(c3ccccc3C#N)CC2)ccc2c(C)cc(=O)oc12 | 496 nM |
| CC(=O)c1c(OCCCCCN2CCN(c3ccccc3Br)CC2)ccc2c(C)cc(=O)oc12 | 108 nM |
| COc1ccccc1N1CCN(CCCCCOc2cc(C)cc3oc(=O)cc(C)c23)CC1 | 776 nM |
| Cc1cc(OCCN2CCN(c3cccc(Br)c3)CC2)c2c(C)cc(=O)oc2c1 | 3540 nM |
| CC(=O)c1c(OCCN2CCN(c3cc(C)ccc3C)CC2)ccc2c(C)cc(=O)oc12 | 2050 nM |
| CC(=O)c1c(OCCN2CCN(c3cc(C)cc(C)c3)CC2)ccc2c(C)cc(=O)oc12 | 479 nM |
